- Test system: 648629-189-R-J1-PDC complex spheroids viability
- assay overview: Anticancer human tumor 648629-189-R-J1-PDC patient-derived bladder carcinoma cell line growth inhibition [CLK]; active = viability on the fitted dose curve at most 10% of control; inactive = the rest
- condition details: second compound 0.0316 µM; first compound 10 µM
Outcomes: 1 for active, 0 for inactive

* CC1(C)CCC(CN2CCN(c3ccc(C(=O)NS(=O)(=O)c4ccc(NCC5CCOCC5)c([N+](=O)[O-])c4)c(Oc4cnc5[nH]ccc5c4)c3)CC2)=C(c2ccc(Cl)cc2)C1 + CNC(=O)c1ccc(Nc2nc(OC3CCCC3)c3c(-c4ccc5nc(C)oc5c4)c[nH]c3n2)c(OC)c1 | 0
* Nc1ccn(C2OC(CO)C(O)C2(F)F)c(=O)n1 (stereo not given) + CN1CCN(c2cc(C(=O)Nc3cc4cc(-c5cnn(C)c5)ccc4cn3)ccn2)CC1 | 1
* COC1C=CCC(C)C(C)S(=O)(=O)NC(=O)c2ccc3c(c2)N(CC2CCC21)CC1(CCCc2cc(Cl)ccc21)CO3 (stereo not given) + CN1CCN(c2cc(C(=O)Nc3cc4cc(-c5cnn(C)c5)ccc4cn3)ccn2)CC1 | 1
* CC1COCCN1c1cc(C2(S(C)(=N)=O)CC2)nc(-c2ccnc3[nH]ccc23)n1 (stereo not given) + CNC(=O)c1ccc(Nc2nc(OC3CCCC3)c3c(-c4ccc5nc(C)oc5c4)c[nH]c3n2)c(OC)c1 | 0
* C=C(F)C(=O)N1CCN(c2nc(OCC3CCCN3C)nc3c2CCN(c2cccc4cccc(Cl)c24)C3)CC1CC#N (stereo not given) + CNC(=O)c1ccc(Nc2nc(OC3CCCC3)c3c(-c4ccc5nc(C)oc5c4)c[nH]c3n2)c(OC)c1 | 1

###

- System: 648629-189-R-J1-PDC complex spheroids viability
- assay overview: Anticancer human tumor 648629-189-R-J1-PDC cell line growth inhibition [CLK];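 note: drug exposure lasted seven days before viability readout; 100% = DMSO vehicle control wells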
- condition details: second compound 0.0316 µM; first compound 0.01 µM; hits give low values
Lab note: anything with viability, T/C below 90% is marked MET; values at 90% or higher are marked NOT MET.

- CCc1c2c(nc3ccc(O)cc13)-c1cc3c(c(=O)n1C2)COC(=O)[C@]3(O)CC + CN1CCN(c2cc(C(=O)Nc3cc4cc(-c5cnn(C)c5)ccc4cn3)ccn2)CC1: MET
- CCN1CCN(Cc2ccc(Nc3ncc(F)c(-c4cc(F)c5nc(C)n(C(C)C)c5c4)n3)nc2)CC1 + CN1CCN(c2cc(C(=O)Nc3cc4cc(-c5cnn(C)c5)ccc4cn3)ccn2)CC1: NOT MET
- COc1c(OCCCN2CCOCC2)ccc2c3n(c(=NC(=O)c4cnc(N)nc4)nc12)CCN3 + CN1CCN(c2cc(C(=O)Nc3cc4cc(-c5cnn(C)c5)ccc4cn3)ccn2)CC1: NOT MET

###

- Tested on: 648629-189-R-J1-PDC complex spheroids viability
- assay overview: Anticancer human tumor 648629-189-R-J1-PDC cell line growth inhibition [CLK];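 note: drug exposure lasted seven days before viability readout; 100% = DMSO vehicle control wells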
- condition details: second compound 1 µM; first compound 0.316 µM; hits give low values
value kind: viability, T/C (%)

* CC1(C)CCC(CN2CCN(c3ccc(C(=O)NS(=O)(=O)c4ccc(NCC5CCOCC5)c([N+](=O)[O-])c4)c(Oc4cnc5[nH]ccc5c4)c3)CC2)=C(c2ccc(Cl)cc2)C1 + CN1CCN(c2cc(C(=O)Nc3cc4cc(-c5cnn(C)c5)ccc4cn3)ccn2)CC1 | 0.38
* COC1C=CCC(C)C(C)S(=O)(=O)NC(=O)c2ccc3c(c2)N(CC2CCC21)CC1(CCCc2cc(Cl)ccc21)CO3 (centres undefined) + CNC(=O)c1ccc(Nc2nc(OC3CCCC3)c3c(-c4ccc5nc(C)oc5c4)c[nH]c3n2)c(OC)c1 | 16.3
* O=c1[nH]cc(F)c(=O)[nH]1 + CN1CCN(c2cc(C(=O)Nc3cc4cc(-c5cnn(C)c5)ccc4cn3)ccn2)CC1 | 0.78
* COc1c(OCCCN2CCOCC2)ccc2c3n(c(=NC(=O)c4cnc(N)nc4)nc12)CCN3 + CN1CCN(c2cc(C(=O)Nc3cc4cc(-c5cnn(C)c5)ccc4cn3)ccn2)CC1 | 0.14
* COc1ccc([C@@H](O)c2cc(-c3ncnc4cc(N5CCOCC5)ccc34)c(F)cc2Cl)nn1 + CN1CCN(c2cc(C(=O)Nc3cc4cc(-c5cnn(C)c5)ccc4cn3)ccn2)CC1 | 0.79
* CCN1CCN(Cc2ccc(Nc3ncc(F)c(-c4cc(F)c5nc(C)n(C(C)C)c5c4)n3)nc2)CC1 + CN1CCN(c2cc(C(=O)Nc3cc4cc(-c5cnn(C)c5)ccc4cn3)ccn2)CC1 | 0.54
* CC1(C)CCC(CN2CCN(c3ccc(C(=O)NS(=O)(=O)c4ccc(NCC5CCOCC5)c([N+](=O)[O-])c4)c(Oc4cnc5[nH]ccc5c4)c3)CC2)=C(c2ccc(Cl)cc2)C1 + CNC(=O)c1ccc(Nc2nc(OC3CCCC3)c3c(-c4ccc5nc(C)oc5c4)c[nH]c3n2)c(OC)c1 | 20.2
* Nc1ccccc1NC(=O)c1ccc(CNC(=O)OCc2cccnc2)cc1 + CN1CCN(c2cc(C(=O)Nc3cc4cc(-c5cnn(C)c5)ccc4cn3)ccn2)CC1 | 0.31
* COc1cccc2c1C(=O)c1c(O)c3c(c(O)c1C2=O)CC(O)(C(=O)CO)CC3OC1CC(N)C(O)C(C)O1 (centres undefined) + CNC(=O)c1ccc(Nc2nc(OC3CCCC3)c3c(-c4ccc5nc(C)oc5c4)c[nH]c3n2)c(OC)c1 | 4.27
* C#Cc1c(F)ccc2cc(O)cc(-c3ncc4c(N5CC6CCC(C5)N6)nc(OCC56CCCN5CC(F)C6)nc4c3F)c12 (centres undefined) + CNC(=O)c1ccc(Nc2nc(OC3CCCC3)c3c(-c4ccc5nc(C)oc5c4)c[nH]c3n2)c(OC)c1 | 15.5
* CCc1c2c(nc3ccc(O)cc13)-c1cc3c(c(=O)n1C2)COC(=O)[C@]3(O)CC + CNC(=O)c1ccc(Nc2nc(OC3CCCC3)c3c(-c4ccc5nc(C)oc5c4)c[nH]c3n2)c(OC)c1 | 4.53
* C=C(F)C(=O)N1CCN(c2nc(OCC3CCCN3C)nc3c2CCN(c2cccc4cccc(Cl)c24)C3)CC1CC#N (centres undefined) + CN1CCN(c2cc(C(=O)Nc3cc4cc(-c5cnn(C)c5)ccc4cn3)ccn2)CC1 | 0.62
* O=c1[nH]cc(F)c(=O)[nH]1 + CNC(=O)c1ccc(Nc2nc(OC3CCCC3)c3c(-c4ccc5nc(C)oc5c4)c[nH]c3n2)c(OC)c1 | 15.7
* COc1cccc2c1C(=O)c1c(O)c3c(c(O)c1C2=O)CC(O)(C(=O)CO)CC3OC1CC(N)C(O)C(C)O1 (centres undefined) + CN1CCN(c2cc(C(=O)Nc3cc4cc(-c5cnn(C)c5)ccc4cn3)ccn2)CC1 | 0.14

###

The following molecules are listed with their measured viability, T/C values.
- Test system: 648629-189-R-J1-PDC complex spheroids viability
- assay overview: Anticancer human tumor 648629-189-R-J1-PDC cell line growth inhibition [CLK];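 note: drug exposure lasted seven days before viability readout; 100% = DMSO vehicle control wells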
- condition details: second compound 0.316 µM; first compound 0.0316 µM; hits give low values
value kind: viability, T/C (%)

- CC(CO)NC(=O)c1cc(-c2ccc(Cl)cc2)nn(-c2cnn(C)c2)c1=O (configuration not stated) + CN1CCN(c2cc(C(=O)Nc3cc4cc(-c5cnn(C)c5)ccc4cn3)ccn2)CC1: 38.1
- CC(=O)O[C@H]1C(=O)[C@@]2(C)[C@H]([C@H](OC(=O)c3ccccc3)[C@]3(O)C[C@H](OC(=O)[C@H](O)[C@@H](NC(=O)c4ccccc4)c4ccccc4)C(C)=C1C3(C)C)[C@]1(OC(C)=O)CO[C@@H]1C[C@@H]2O + CNC(=O)c1ccc(Nc2nc(OC3CCCC3)c3c(-c4ccc5nc(C)oc5c4)c[nH]c3n2)c(OC)c1: 40.7

###

- System: 648629-189-R-J1-PDC complex spheroids viability
- assay overview: Anticancer human tumor 648629-189-R-J1-PDC cell line growth inhibition [CLK];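 note: drug exposure lasted seven days before viability readout; 100% = DMSO vehicle control wells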
- condition details: second compound 1 µM; first compound 0.316 µM; hits give low values
We begin with a simple list: items and their reported viability, T/C.
value kind: viability, T/C

- Nc1ccn(C2OC(CO)C(O)C2(F)F)c(=O)n1 (centres undefined) + CNC(=O)c1ccc(Nc2nc(OC3CCCC3)c3c(-c4ccc5nc(C)oc5c4)c[nH]c3n2)c(OC)c1: 11.8%
- CC(Nc1ccc2c(c1)OCCn1cc(N3C(=O)OCC3C(F)F)nc1-2)C(N)=O (centres undefined) + CN1CCN(c2cc(C(=O)Nc3cc4cc(-c5cnn(C)c5)ccc4cn3)ccn2)CC1: 0.93%
- CC(=O)O[C@H]1C(=O)[C@@]2(C)[C@H]([C@H](OC(=O)c3ccccc3)[C@]3(O)C[C@H](OC(=O)[C@H](O)[C@@H](NC(=O)c4ccccc4)c4ccccc4)C(C)=C1C3(C)C)[C@]1(OC(C)=O)CO[C@@H]1C[C@@H]2O + CNC(=O)c1ccc(Nc2nc(OC3CCCC3)c3c(-c4ccc5nc(C)oc5c4)c[nH]c3n2)c(OC)c1: 58.8%
- O=C(c1cc(Cc2n[nH]c(=O)c3ccccc23)ccc1F)N1CCN(C(=O)C2CC2)CC1 + CNC(=O)c1ccc(Nc2nc(OC3CCCC3)c3c(-c4ccc5nc(C)oc5c4)c[nH]c3n2)c(OC)c1: 20.1%
- CC1COCCN1c1cc(C2(S(C)(=N)=O)CC2)nc(-c2ccnc3[nH]ccc23)n1 (centres undefined) + CNC(=O)c1ccc(Nc2nc(OC3CCCC3)c3c(-c4ccc5nc(C)oc5c4)c[nH]c3n2)c(OC)c1: 19.7%
- CCN1CCN(Cc2ccc(Nc3ncc(F)c(-c4cc(F)c5nc(C)n(C(C)C)c5c4)n3)nc2)CC1 + CNC(=O)c1ccc(Nc2nc(OC3CCCC3)c3c(-c4ccc5nc(C)oc5c4)c[nH]c3n2)c(OC)c1: 21.5%
- COc1c(OCCCN2CCOCC2)ccc2c3n(c(=NC(=O)c4cnc(N)nc4)nc12)CCN3 + CNC(=O)c1ccc(Nc2nc(OC3CCCC3)c3c(-c4ccc5nc(C)oc5c4)c[nH]c3n2)c(OC)c1: 11.1%
- Nc1ccccc1NC(=O)c1ccc(CNC(=O)OCc2cccnc2)cc1 + CNC(=O)c1ccc(Nc2nc(OC3CCCC3)c3c(-c4ccc5nc(C)oc5c4)c[nH]c3n2)c(OC)c1: 20.5%
- CC(=O)O[C@H]1C(=O)[C@@]2(C)[C@H]([C@H](OC(=O)c3ccccc3)[C@]3(O)C[C@H](OC(=O)[C@H](O)[C@@H](NC(=O)c4ccccc4)c4ccccc4)C(C)=C1C3(C)C)[C@]1(OC(C)=O)CO[C@@H]1C[C@@H]2O + CN1CCN(c2cc(C(=O)Nc3cc4cc(-c5cnn(C)c5)ccc4cn3)ccn2)CC1: 0.87%
- CC(Nc1ccc2c(c1)OCCn1cc(N3C(=O)OCC3C(F)F)nc1-2)C(N)=O (centres undefined) + CNC(=O)c1ccc(Nc2nc(OC3CCCC3)c3c(-c4ccc5nc(C)oc5c4)c[nH]c3n2)c(OC)c1: 18.5%
- C#Cc1c(F)ccc2cc(O)cc(-c3ncc4c(N5CC6CCC(C5)N6)nc(OCC56CCCN5CC(F)C6)nc4c3F)c12 (centres undefined) + CN1CCN(c2cc(C(=O)Nc3cc4cc(-c5cnn(C)c5)ccc4cn3)ccn2)CC1: 0.41%
- CC1COCCN1c1cc(C2(S(C)(=N)=O)CC2)nc(-c2ccnc3[nH]ccc23)n1 (centres undefined) + CN1CCN(c2cc(C(=O)Nc3cc4cc(-c5cnn(C)c5)ccc4cn3)ccn2)CC1: 0.84%
- CCc1c2c(nc3ccc(O)cc13)-c1cc3c(c(=O)n1C2)COC(=O)[C@]3(O)CC + CN1CCN(c2cc(C(=O)Nc3cc4cc(-c5cnn(C)c5)ccc4cn3)ccn2)CC1: 0.21%
- C=C(F)C(=O)N1CCN(c2nc(OCC3CCCN3C)nc3c2CCN(c2cccc4cccc(Cl)c24)C3)CC1CC#N (centres undefined) + CNC(=O)c1ccc(Nc2nc(OC3CCCC3)c3c(-c4ccc5nc(C)oc5c4)c[nH]c3n2)c(OC)c1: 23%
- COc1ccc([C@@H](O)c2cc(-c3ncnc4cc(N5CCOCC5)ccc34)c(F)cc2Cl)nn1 + CNC(=O)c1ccc(Nc2nc(OC3CCCC3)c3c(-c4ccc5nc(C)oc5c4)c[nH]c3n2)c(OC)c1: 20.5%
- CC(CO)NC(=O)c1cc(-c2ccc(Cl)cc2)nn(-c2cnn(C)c2)c1=O (centres undefined) + CN1CCN(c2cc(C(=O)Nc3cc4cc(-c5cnn(C)c5)ccc4cn3)ccn2)CC1: 0.32%
- CCCS(=O)(=O)Nc1ccc(F)c(C(=O)c2c[nH]c3ncc(-c4ccc(Cl)cc4)cc23)c1F + CN1CCN(c2cc(C(=O)Nc3cc4cc(-c5cnn(C)c5)ccc4cn3)ccn2)CC1: 0.3%
- CCCS(=O)(=O)Nc1ccc(F)c(C(=O)c2c[nH]c3ncc(-c4ccc(Cl)cc4)cc23)c1F + CNC(=O)c1ccc(Nc2nc(OC3CCCC3)c3c(-c4ccc5nc(C)oc5c4)c[nH]c3n2)c(OC)c1: 23.2%
- COC1C=CCC(C)C(C)S(=O)(=O)NC(=O)c2ccc3c(c2)N(CC2CCC21)CC1(CCCc2cc(Cl)ccc21)CO3 (centres undefined) + CN1CCN(c2cc(C(=O)Nc3cc4cc(-c5cnn(C)c5)ccc4cn3)ccn2)CC1: 0.42%
